The measurements presented in this section are drawn from patent US9321767B2.

Test system: rgRSV224 virus
testProtocol: microbe, parasite or virus in culture
Format: cell-based, respiratory syncytial virus (RSV)
measurementSetup: ratio of CC50 (HeLa cytotoxicity) to EC50 (RSV)

| molecule | SI CC50/EC50 |
| --- | --- |
| O=c1n(Cc2nc3ncccc3n2CCCc2ccccc2)c2cnccc2n1C1CC1 | >8223 |
| O=c1n(Cc2nc3ncccc3n2CCCC(F)(F)F)c2cnccc2n1CC(F)(F)F | >2766 |
| CC(C)CCn1c(Cn2c(=O)n(CC(F)(F)F)c3ccncc32)nc2nc(Cl)ccc21 | 36156 |
| O=c1n(Cc2nc3nc(Cl)ccc3n2CCCC(F)(F)F)c2cc(F)ccc2n1CC(F)(F)F | >49069 |
| O=c1n(Cc2nc3nc(F)ccc3n2CCCC(F)(F)F)c2cnccc2n1C1CC1 | >1318 |
| O=C(NC1CCCC1)OCCCCn1c(Cn2c(=O)n(C3CC3)c3ccncc32)nc2nc(Cl)ccc21 | 14406 |
| N#CCCCn1c(Cn2c(=O)n(C3CC3)c3ccncc32)nc2ccc(Cl)nc21 | >68 |
| O=C(Nc1ccc(F)c(Cl)c1)OCCCCn1c(Cn2c(=O)n(C3CC3)c3ccncc32)nc2nc(Cl)ccc21 | 354 |
| COc1ccc(NC(=O)OCCCCn2c(Cn3c(=O)n(C4CC4)c4ccncc43)nc3nc(Cl)ccc32)cc1 | 1711 |
| CC(=O)OCCCCn1c(Cn2c(=O)n(C3CC3)c3ccncc32)nc2nc(Cl)ccc21 | >18058 |
| O=C(Nc1ccc(F)cc1C(F)(F)F)OCCCCn1c(Cn2c(=O)n(C3CC3)c3ccncc32)nc2nc(Cl)ccc21 | 4731 |
| CC(C)OC(=O)NCCCCn1c(Cn2c(=O)n(C3CC3)c3ccncc32)nc2ncccc21 | >1380 |
| O=c1n(Cc2nc3ncccc3n2CCCOC(F)(F)F)c2cnccc2n1C1CC1 | >9116 |
| O=c1n(Cc2nc3nc(Cl)ccc3n2CCCC(F)(F)F)c2cnccc2n1CC(F)(F)F | >108383 |
| O=c1n(Cc2nc3ncccc3n2CCCCF)c2cnccc2n1CC(F)(F)F | 1436 |
| O=C(NCCCCn1c(Cn2c(=O)n(C3CC3)c3ccncc32)nc2nc(Cl)ccc21)OCCF | >24518 |
| O=C1c2ccccc2C(=O)N1CCCCn1c(Cn2c(=O)n(C3CC3)c3ccncc32)nc2nc(Cl)ccc21 | >16939 |
| O=c1n(Cc2nc3ncccc3n2CCCc2ccccn2)c2cnccc2n1C1CC1 | >748 |
| CC(O)CCCn1c(Cn2c(=O)n(C3CC3)c3ccncc32)nc2nc(Cl)ccc21 (stereo not drawn) | >12643 |
| CC(C)CCn1c(Cn2c(=O)n(CC(F)(F)F)c3ccc(F)cc32)nc2nc(Cl)ccc21 | 13572 |
| CC(C)(CO)CCn1c(Cn2c(=O)n(C3CC3)c3ccncc32)nc2nc(Cl)ccc21 | >4517 |
| O=c1n(Cc2nc3ncccc3n2CCCC(F)(F)F)c2cc(F)ccc2n1CC(F)(F)F | >2037 |
| O=c1n(Cc2nc3ncccc3n2CCCC(F)F)c2cnccc2n1C1CC1 | 7161 |
| CC(C)(O)CCCn1c(Cn2c(=O)n(C3CC3)c3ccncc32)nc2nc(Cl)ccc21 | >63325 |
| O=C(NCCCCn1c(Cn2c(=O)n(C3CC3)c3ccncc32)nc2nc(Cl)ccc21)OC1CCCC1 | 5649 |
| O=c1n(Cc2nc3ncccc3n2CCCc2ccccc2)c2cc(F)ccc2n1C1CC1 | >3176 |
| CC(C)C(=O)OCCCCn1c(Cn2c(=O)n(C3CC3)c3ccncc32)nc2nc(Cl)ccc21 | >18110 |
| O=C(Nc1ccc(Cl)cc1)OCCCCn1c(Cn2c(=O)n(C3CC3)c3ccncc32)nc2nc(Cl)ccc21 | 263 |
| NC(=O)NCCCCn1c(Cn2c(=O)n(C3CC3)c3ccncc32)nc2nc(Cl)ccc21 | >1997 |
| CC(C)CCn1c(Cn2c(=O)n(C3CC3)c3ccncc32)nc2nc(C(=N)N)ccc21 | >330179 |
| CC1=C(NCCCCn2c(Cn3c(=O)n(C4CC4)c4ccncc43)nc3nc(Cl)ccc32)c2ccccc2S1(=O)=O | >9628 |
| COC(=O)c1nccc2c1n(Cc1nc3nc(Cl)ccc3n1CCCCO)c(=O)n2C1CC1 | >339 |
| COC(=O)NCCCCn1c(Cn2c(=O)n(C3CC3)c3ccncc32)nc2nc(Cl)ccc21 | >12208 |
